The measurements presented in this section are drawn from paper PMC11609450.

# experimental.system: PFK-A1 (Sll1196) (Synechocystis sp. PCC 6803)
# Sequence (P72830 whole entry): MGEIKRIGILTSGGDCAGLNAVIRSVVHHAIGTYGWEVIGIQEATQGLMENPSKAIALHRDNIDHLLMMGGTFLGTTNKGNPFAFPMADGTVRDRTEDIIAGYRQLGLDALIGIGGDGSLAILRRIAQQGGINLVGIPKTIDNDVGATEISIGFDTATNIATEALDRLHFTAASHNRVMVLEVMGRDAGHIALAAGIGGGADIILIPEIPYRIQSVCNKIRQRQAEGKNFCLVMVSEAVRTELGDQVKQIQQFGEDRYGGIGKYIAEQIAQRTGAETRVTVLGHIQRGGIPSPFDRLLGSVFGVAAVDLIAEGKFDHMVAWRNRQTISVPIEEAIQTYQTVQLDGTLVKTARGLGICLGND
experimental.endpoint: Ki (µM)
Field format: number, assumed µM, no unit text.

Please fill in: Ki reported for O=C(O)[C@H](O)COP(=O)(O)O = 110
